target: Transient receptor potential cation channel subfamily V member 1 (Rattus norvegicus); assay: Inhibition of low pH activation of rat TRPV1; assay type: functional
Sequence (O35433 whole entry): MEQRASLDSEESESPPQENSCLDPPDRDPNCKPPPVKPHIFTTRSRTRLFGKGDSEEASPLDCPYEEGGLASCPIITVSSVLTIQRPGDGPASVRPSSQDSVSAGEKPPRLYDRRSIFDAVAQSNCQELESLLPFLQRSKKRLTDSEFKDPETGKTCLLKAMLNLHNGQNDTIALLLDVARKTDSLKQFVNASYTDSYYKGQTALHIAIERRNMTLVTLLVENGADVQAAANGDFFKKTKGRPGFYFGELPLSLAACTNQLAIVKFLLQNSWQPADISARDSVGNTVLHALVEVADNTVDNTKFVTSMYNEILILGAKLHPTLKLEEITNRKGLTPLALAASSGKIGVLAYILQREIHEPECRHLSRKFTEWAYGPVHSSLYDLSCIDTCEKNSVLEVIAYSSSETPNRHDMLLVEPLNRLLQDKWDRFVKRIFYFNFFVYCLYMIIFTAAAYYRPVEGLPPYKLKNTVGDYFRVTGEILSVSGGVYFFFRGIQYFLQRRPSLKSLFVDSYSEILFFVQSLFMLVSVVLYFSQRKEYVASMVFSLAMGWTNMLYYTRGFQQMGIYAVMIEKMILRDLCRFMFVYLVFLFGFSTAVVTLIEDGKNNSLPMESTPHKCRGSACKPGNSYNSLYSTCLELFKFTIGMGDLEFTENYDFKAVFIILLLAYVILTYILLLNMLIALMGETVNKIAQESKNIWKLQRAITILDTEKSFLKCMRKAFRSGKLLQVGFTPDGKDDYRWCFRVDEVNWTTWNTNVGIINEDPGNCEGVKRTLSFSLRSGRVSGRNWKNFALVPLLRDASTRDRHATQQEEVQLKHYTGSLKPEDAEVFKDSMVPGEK
Known IC50 of a selection of molecules

- COMPOUND_STRING: "Cc1nc2cc(C(C)C)c(-c3ccc(Cl)c(OCC4CC4)c3)cc2c(=O)[nH]1"
  UNIT_TEXT: "nM"
  IC50: 105
- COMPOUND_STRING: "CC(C)(C)c1nc2[nH]c(=S)[nH]c(=O)c2cc1-c1ccccc1"
  UNIT_TEXT: "nM"
  IC50: 25

---

assay: Plasma concentration in rat at 3 mg/kg, po after 9 hrs; format: ADME, organism-based; set-up: dose 3 mg/kg, route oral; conditions: Wistar Han

- COMPOUND_STRING: "Cc1nc2cc(C(C)C)c(-c3ccc(Cl)c(OCC4CC4)c3)cc2c(=O)[nH]1"
  concentration at 9 h (nM): 904
